# Tested on: plasma protein
# experimentNotes: Plasma protein binding rate test by equilibrium dialysis method, rabbit plasma
# Type: in vitro ADME
# reportedConditions: 5 μM, equilibrium dialysis 4 hours at 37° C.
Hi there, I'd appreciate the recorded Plasma protein binding rate (%) rabbit for every entry that follows.
Reply numerically in %, unit not repeated.

Prompt: Requested read-out: Plasma protein binding rate (%) rabbit. Entry: CC1(C)C(/C=C/C=C/C=C/C=C2\N(CC(=O)O)c3ccc(S(=O)(=O)[O-])cc3C2(C)C)=[N+](CC(=O)O)c2ccc(S(=O)(=O)[O-])cc21.[Na+] [Compound 4]
Completion: 67

Prompt: May I ask what Plasma protein binding rate (%) rabbit has been recorded for CC1(C)C(/C=C/C=C(/C=C/C=C2\N(CCCP(=O)([O-])[O-])c3ccc(S(=O)(=O)[O-])cc3C2(C)C)c2ccccc2)=[N+](CCCP(=O)([O-])[O-])c2ccc(S(=O)(=O)[O-])cc21.[Na+].[Na+].[Na+].[Na+].[Na+] [Compound 12] ?
Completion: 95

Prompt: Could you share which Plasma protein binding rate (%) rabbit value was measured for CC1(C)C(/C=C/C=C(/C=C/C=C2\N(CCC(=O)[O-])c3ccc(P(=O)([O-])[O-])cc3C2(C)C)c2ccccc2)=[N+](CCC(=O)[O-])c2ccc(P(=O)([O-])[O-])cc21.[Na+].[Na+].[Na+].[Na+].[Na+] [Compound 16] ?
Completion: 95

Prompt: GET /values?readout=Plasma protein binding rate (%) rabbit&item= CC1(C)C(=CC=CC=CC=CC2=[N+](CCP(=O)([O-])[O-])c3ccc(S(=O)(=O)[O-])cc3C2(C)C)N(CCP(=O)([O-])[O-])c2ccc(S(=O)(=O)[O-])cc21.[Na+].[Na+].[Na+].[Na+].[Na+] [Compound 9]
Completion: 61

Prompt: Param item = CC(/C=C/C=C1\N(CCS(=O)(=O)[O-])c2ccc(P(=O)([O-])[O-])cc2C1(C)C)=C\C=C\C1=[N+](CCS(=O)(=O)[O-])c2ccc(P(=O)([O-])[O-])cc2C1(C)C.[Na+].[Na+].[Na+].[Na+].[Na+] [Compound 18] ; retrieve measured Plasma protein binding rate (%) rabbit.
Completion: 82

Prompt: Recorded Plasma protein binding rate (%) rabbit for CC(/C=C/C=C1\N(CCC(=O)[O-])c2ccc(P(=O)([O-])[O-])cc2C1(C)C)=C\C=C\C1=[N+](CCC(=O)[O-])c2ccc(P(=O)([O-])[O-])cc2C1(C)C.[Na+].[Na+].[Na+].[Na+].[Na+] [Compound 17] , please?
Completion: 79

Prompt: # input molecule: CC1(C)C(/C=C/C=C(/C=C/C=C2\N(CCP(=O)([O-])[O-])c3ccc(S(=O)(=O)[O-])cc3C2(C)C)c2ccccc2)=[N+](CCP(=O)([O-])[O-])c2ccc(S(=O)(=O)[O-])cc21.[Na+].[Na+].[Na+].[Na+].[Na+] [Compound 11] ; wanted: its Plasma protein binding rate (%) rabbit
Completion: 98
